assay: Cmax in C57BL/6 mouse plasma at 10 mg/kg, iv measured after 4 hrs by LC-MS/MS analysis; format: ADME, organism-based
measurement_name: Cmax (ng/mL)
Respond numerically; units are ng/mL and should not be typed.

Consider `Cl.N[C@H](C(=O)O)[C@H]1[C@H](CC(=O)O)[C@@H]1C(=O)O` . Its measured Cmax is 50

====

target: Metabotropic glutamate receptor 2 (Rattus norvegicus); test: Agonist activity at rat mGlu2; type: functional
Sequence (P31421 whole entry): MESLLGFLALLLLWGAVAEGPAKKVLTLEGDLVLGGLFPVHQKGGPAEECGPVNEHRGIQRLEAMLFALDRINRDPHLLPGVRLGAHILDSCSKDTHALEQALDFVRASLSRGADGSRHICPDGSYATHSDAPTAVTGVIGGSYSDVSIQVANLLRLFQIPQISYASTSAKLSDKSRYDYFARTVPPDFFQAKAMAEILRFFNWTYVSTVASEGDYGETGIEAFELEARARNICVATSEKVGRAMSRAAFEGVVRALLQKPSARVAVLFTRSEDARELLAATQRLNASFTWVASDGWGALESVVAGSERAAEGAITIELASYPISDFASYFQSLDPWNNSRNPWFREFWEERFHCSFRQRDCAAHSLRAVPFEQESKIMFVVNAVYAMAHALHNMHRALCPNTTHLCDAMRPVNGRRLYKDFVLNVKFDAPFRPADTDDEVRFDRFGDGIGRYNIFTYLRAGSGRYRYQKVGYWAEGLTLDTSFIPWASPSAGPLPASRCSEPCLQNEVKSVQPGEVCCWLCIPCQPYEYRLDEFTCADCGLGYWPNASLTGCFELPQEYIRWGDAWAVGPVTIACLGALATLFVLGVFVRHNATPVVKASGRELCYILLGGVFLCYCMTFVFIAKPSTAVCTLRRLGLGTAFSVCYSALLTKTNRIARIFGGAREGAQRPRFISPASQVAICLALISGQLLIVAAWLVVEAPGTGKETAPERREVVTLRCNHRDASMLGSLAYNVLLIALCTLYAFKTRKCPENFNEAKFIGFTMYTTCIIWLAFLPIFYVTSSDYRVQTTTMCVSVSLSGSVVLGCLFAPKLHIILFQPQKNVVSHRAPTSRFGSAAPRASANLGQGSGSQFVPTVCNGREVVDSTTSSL
measurement_name: pEC50
In simple prose, pEC50 is minus the logarithm base ten of a concentration in moles per litre.

Item `N[C@H](C(=O)O)[C@H]1[C@@H](CO)[C@@H]1C(=O)O` ; assay system Metabotropic glutamate receptor 2 (Rattus norvegicus); pEC50 reported as 8.40

Taken from ChEMBL document CHEMBL5537160.
